- Tested on: DGAT1 and DGAT2
- measurement notes: DGAT inhibition (DGAT1 and DGAT2) in human liver microsomes
- Assay type: biochemical
measured metric: pIC50
Formally, pIC50 is defined as -log10 of the concentration c, with c in mol/L.

INPUT: Requested field: pIC50. Item: CC(C)c1cc(C(C)C)c(CC(=O)NS(=O)(=O)Oc2c(C(C)C)cccc2C(C)C)c(C(C)C)c1
OUTPUT: 5.10

* * *

- Tested on: ACAT
- measurement notes: ACAT inhibition in rat liver microsomes
- Type: biochemical
measured metric: IC50 (µM)
The response must be a number in µM with no trailing unit.

INPUT: Requested field: IC50. Item: CC(C)c1cc(C(C)C)c(CC(=O)NS(=O)(=O)Oc2c(C(C)C)cccc2C(C)C)c(C(C)C)c1
OUTPUT: 1.03
